B1: TPR t1 (parent)
chain: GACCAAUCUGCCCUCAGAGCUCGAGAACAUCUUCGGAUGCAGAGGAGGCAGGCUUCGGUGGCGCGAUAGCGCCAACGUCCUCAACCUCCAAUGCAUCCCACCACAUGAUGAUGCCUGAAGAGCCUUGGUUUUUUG

# Variants of: B1
# Assay Procedure: polymerase ribozyme fitness, log enrichment relative to wild type (log ratio); higher = more active; in vitro selection for triplet polymerase activity

# Variant Label, polymerase ribozyme fitness (log ratio)
data = [
    ("A2U G113C", -3.73),
    ("G42A C82A U87A G93C C124G", -1.42),
    ("C11G G47U C56U U112C G122A", -0.322),
    ("A6C A41C C94A U129G", -4.39),
    ("A5G C101A C115A", -0.823),
    ("C8A C70U A91C U116A", -2.96),
    ("A43U C115U", -1.87),
    ("G71C U81G C97U U106A G120A", -3.76),
    ("A6U C11U U55G A83U U106A G128U U130C", -1.47),
    ("A6U C28G C72U C102U A103C", -7.04),
    ("G47A G48A C53A G127A", -3.92),
    ("G51A A95G", -2.62),
    ("G61A C79A C104A A111U", -5.96),
    ("A43C C94G", -4.54),
    ("G63A U87G A111C", -1.52),
    ("G23U U112G C114U C124G U125C", -7.12),
    ("C70G C79G C98U U109G U125A", -7.56),
    ("G51U C89A", -5.25),
    ("U55A C79U C97U C115U G127C", -3.52),
    ("G10C A26C G120C G122A C123G G128A", -5.85),
    ("C11G G42C C49U G117C C124G", -4.14),
    ("C56G C62U U106A G110U", -0.758),
    ("G44C G69A U116C C123U", -5.92),
    ("C40A C70A", -2.89),
    ("A6U G42U G51A", -5.8),
    ("U9A C73A C104U U130G G135C", 0.682),
    ("C22G C56A C73U", -4.49),
    ("U7G C20U", -1.37),
    ("C53U G71A C101G U130A", -3.93),
    ("A5U G10A C15A C70U C79A C94U C99U C124U", -7.66),
    ("U14C A50U U96C C115U A121U", -5.13),
    ("C3U C13U A41G G61U C79A C85U G120U G127C", -3.54),
    ("A6C G10C G36U", -2.24),
    ("C40A U55A G69C C73A A84C G120A", -1.3),
    ("C4G C40U", -1.78),
    ("C70A C88U", -1.26),
    ("C40A C56U U87A", -1.61),
    ("C11A C22G", -4.15),
    ("G47C G52C G120U C123A", -1.92),
    ("G107A G122A", -5.18),
    ("A29U G61C C72A", -1.68),
    ("C8G G57A C73U U78A A91U", -1.7),
    ("G44C C62G U132A", -2.39),
    ("A66G U109A", -6.35),
    ("A37G C49G C64G A111U U126G", -6.45),
    ("U7G G48U C70A C86G", -1.54),
]
